Quick reference: polymerase ribozyme fitness (log ratio) of the listed items.
B1: TPR t1 (parent)
chain: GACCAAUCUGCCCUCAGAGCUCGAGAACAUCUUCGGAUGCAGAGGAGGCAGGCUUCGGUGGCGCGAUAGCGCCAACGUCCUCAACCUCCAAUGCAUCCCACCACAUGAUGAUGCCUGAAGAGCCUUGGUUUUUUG

Variants of: B1
Assay: polymerase ribozyme fitness, log enrichment relative to wild type (log ratio); higher = more active; in vitro selection for triplet polymerase activity
Lab note: jot down the number only; don't add units.

Field: example entries. Status: answers known.
{"monomerSequence": "GACCAAUCUGCCCUCAGAGCUCGAGAACAUCUUCGGAUGGAGAGGAGGCAGGCUUCUGUGGCGCGAUAGCGCCAACGUCCUCAACCUCCACUGCAUCCCACCACAUGAUGAUGCCUGAAGAGCCUUGGUUUUUUG [C40G G57U A91C]", "polymerase ribozyme fitness (log ratio)": -3.44}
{"monomerSequence": "GCCCAAUCUGCCCUCAGAGCUCGAGAACAUCUUCGGAUGCAGAGGAGGCAGGUUUCGGUGGCGCGAUAGCGCCAACGUCCGCAACCUCCAAUGCAUCCCACCACAUGAUGAUGCCUGAAGAGCCUUGGUUUUUUG [A2C C53U U81G]", "polymerase ribozyme fitness (log ratio)": -4.15}
{"monomerSequence": "GACCAAUCUGCCCUCAGAGCUCGAGAACAUCUUCGGAUGCAGAGGAGUCAGGCUUCGGUGGCGCGAUAGCGCCAACGUCCUCAACCUCCAACGCAUCCCACCACAUGAUGAUGCCUGAAAAGCCUUCGUUUUUGG [G48U U92C G120A G127C U134G]", "polymerase ribozyme fitness (log ratio)": -1.91}
{"monomerSequence": "GACCAAUCUGCCCUCAGAGCUCGAGAACAUCUUCGGAUGUAGAGGAGGCAGGCUUCGGUGGCGCGAUAGCGCCGACUUCCUCAACCUCCAAUGCAUCCCACCACAUGAUGAUGCCUGAAGAGUCUUGGUUUUUUG [C40U A74G G77U C123U]", "polymerase ribozyme fitness (log ratio)": 1.22}

Item under review: GACCAAUCUGCCCUCAGAGCUCGAGAACAUCUUCGGAUGCAGAGGAGGCAGGAUUCGGUGGCGCGAUAGCGCCAACGUCCGCAACCUCCGAUGCAUCCCACCACAUGAUGAUGCCUGAAGAGCCUUGGUUUUUUG [C53A U81G A90G] . Reported polymerase ribozyme fitness (log ratio)?
0.427

# polymerase ribozyme fitness (log ratio) lookup, item GACCAAUCUGCACUCAGAGCUCGAGAACAUCUUCGGAUGCAGAGGAAGCAGGCUUCGGUGGCGCGAUAGUGCCAACGUCCUCAACCUUCAAUGCAUCCCACCACAAGAUGAUGCCUGAAGAGCCUUGGUUUUUUG [C12A G47A C70U C88U U106A]
-2.59

Data request, read-out polymerase ribozyme fitness (log ratio), for GACCAAUCUGCCGUCAGAGCUCGAGAACAUCUUCGGAUGCAGAGGAGGGAGGCUUCGGUGGCGCGAUAGCGCCAACGUCCUCAACCUCCAAUGCAUCCCACCACAUGAUGAUGCCUGAAGAGCCUUGGUUUUUUG [C13G C49G]
-2.28

Name the recorded polymerase ribozyme fitness (log ratio) for GACCACUCUGCCCUCAGAGCUCGAGAACAUCUUCGGAUGCAGAGGAGGCAGGCUUCGGUGGCGCGAUAGCGCCAACGUCCUCAACCUCCAAUGCAUACCACCACAUGAUGAUGCCUGAAGAGCCUUGGUUUUUUG [A6C C97A] .
-4.04

Could you tell me which polymerase ribozyme fitness (log ratio) is on file for GACCAAUCUGCCCUCAGAGCUCGAGAACAUCUUCGGAUGCAGAGGAGGCAGGCUUCGGUGGCGCGAUAGCGCCAACGUCCUCAACCUCCAAUUCAUCCCACCACAUGAUGAUGCUUGAAGAGCCUUGGUUUUUUG [G93U C115U] ?
-1.63

Request the reported polymerase ribozyme fitness (log ratio) associated with GACCAAUCUGCCCUCAGAGCUCGAGAACAUCUUCGGAUGCAGAGGAGGCAGGCUUCGGUGUCGCGAUAGCGCCAACGUACUCAACCUCCAAUGCAUCCCACCAUAUGAUGAUGCCUGAAGAGCCUUGGUUUUUUG [G61U C79A C104U]
-0.851

Entry GACCAAUCUGCUCUCAGAGCUCGAGAACAUCUUCGGAUGUAGAGGAGGCAGGCUUCGGUGGCGCGAUACCGCCAACGUCCUCAACCUCCAUUGCAUCCCAUCACAUGAUGAUGCCUGAAGCGCCUUGGUUUUUUG [C12U C40U G69C A91U C101U A121C] has what polymerase ribozyme fitness (log ratio)?
-2.89

For the variant shown here, GACCAAUCUUCCCUCAGAGAUCGAGAACAUCUUCGGAUGCAGAGGAGGUAGGCUUCGGUGGCGCCAUAGCGCCAACGUCCUCAACCUCCAAUGAAUCCCACCACAUGAGGAUGCCUGAAGAGCCUUGGUUUUUUG [G10U C20A C49U G65C C94A U109G] , give the reported polymerase ribozyme fitness (log ratio).
-7.47

Look up polymerase ribozyme fitness (log ratio) for this variant: GACCAAUCUGCCCUCAGAGCUCGAGAACAUCUUCUGAUGCAGAGAAGGCAGGCUUCGGUGGCGCGAUAGCGCCAACGUCCACAACCUCAAAUGCAUCCCACCACAUGAUGAUGCCUGAAAAGCCUUGGUUUUUUG [G35U G45A U81A C89A G120A]
-4.73

// polymerase ribozyme fitness (log ratio) lookup, key: GCCCAAUCUGCCCUCAGAGCUCGAGAACAUCUUCGGAUGCAGAGAAGGCAGGCUUCAGUGGCGCGAUAGCGCCAACGUCCUCAACCUCCAAUGCAUCCCACCACAUGAUGAUGUCUGAAGAGCUUUCGUUUUUUG [A2C G45A G57A C114U C124U G127C]
-5.9

Value lookup for polymerase ribozyme fitness (log ratio); key = GACCAAUCUGCCCUCAGAGCUCGAGAACAUCUUCGGAUGCAGAGUAGGCAGGCUUCGGUGGCGCGAUAGAGCCAACGUCCUCAACCUCCAAUGCAUCCCACCACAUGAUGAUGCCUGAAGAGUCUUGGUUUUUUG [G45U C70A C123U]
-1.23

Please report the recorded polymerase ribozyme fitness (log ratio) for GACCAAUCUGCCCUAAGAGCUCGAGAACAUCUUCGGAUGCAGAGGAGGCAGGCUUCGGUGGCGCGAUAGCGCCAACGUCCUAAACCUCCAAUGCAUCCCACCACAUGAUGAUGCCUGAAGAGCCUUGGUUUUUUG [C15A C82A] .
-3.12

State the recorded polymerase ribozyme fitness (log ratio) for this entry: GACCAAUCUGCCCUCAGAGCUCGAGAUCAUCUUCGGAUGCAGAGGAGGCAGGCUUCGGUGGCGCGAUAGCGCUAACGUCCUCAACCUCCAAUGCAUCCCACCACAUGAUGAUGCCUGAAGAGCCUUGGUUUUUUG [A27U C73U]
-2.99

What does the record list as polymerase ribozyme fitness (log ratio) for GACCAAUCUGCCCUAAGAGCUCGAGAACAUCUUCGGAUGCAGAAUAGUCAGGCUUCGGUGGUGCGAUAGCGCUAACGGCCUCAACCUCCAAUGCAUCCCACCACAUGAUGAUGCCUGAAGAGCCUUGGUUUUUUG [C15A G44A G45U G48U C62U C73U U78G] ?
-5.47

Endpoint output: polymerase ribozyme fitness (log ratio) of GACCAAUCUGCCCUCAGAGUUCGAGAACAUCUUCGGAUGCAGAGGAGGCAGUUUUAGGUGGCGCGAUAGCGCCAACGUCCUCAACCUCCAAUGCAUCCCACCACAUGAUGAUGCCUGAAGAGACUUGGUUUUUUG [C20U G52U C53U C56A C123A] . Value?
-3.62

Requested field: polymerase ribozyme fitness (log ratio). Item: GACCAACCUGCCCGCAGAGCUCGAGAACAUCUUCGGCUGCAGAGGAGGCAGGCUUCGGUGGCGCGAUAGCGCCAACGUCCUCAACCUCCAAUGCAUCCCACCACAUGAUGAUGCCUGAAGAGCCUUGGUUUUUUG [U7C U14G A37C]
-1.12

If you can, please state the reported polymerase ribozyme fitness (log ratio) value of GACCAAUCUGCCCUCAGAGAUCGAGAACAUCUUCGGAUGCAGAGGAGGCAGGCUUCGGUGGCGCGAUAGCGGCAACGUCCUCAACCUCCAAUGCAUCCCACCACAUGAUGAUGCCUGAAGAGCCUUGGUUGUUUG [C20A C72G U131G] .
-3.6

// lookup polymerase ribozyme fitness (log ratio) for GACCAAUCUGCCCUCAGAGCUCGAGAACAUCUUCGGAUGCAGAGGAGGCAGGCUUCGGUGUCGCGAUAGCGCCAGCGUCCUGAACCUCCAAUGCAUCCCCCCACAUGAUGAUUCCUGAAGAGCCUUGGUUUUUUG [G61U A75G C82G A100C G113U]
-5.51
